target.or.system: D(1B) dopamine receptor (Homo sapiens, UniProt P21918)
Sequence (P21918 whole entry): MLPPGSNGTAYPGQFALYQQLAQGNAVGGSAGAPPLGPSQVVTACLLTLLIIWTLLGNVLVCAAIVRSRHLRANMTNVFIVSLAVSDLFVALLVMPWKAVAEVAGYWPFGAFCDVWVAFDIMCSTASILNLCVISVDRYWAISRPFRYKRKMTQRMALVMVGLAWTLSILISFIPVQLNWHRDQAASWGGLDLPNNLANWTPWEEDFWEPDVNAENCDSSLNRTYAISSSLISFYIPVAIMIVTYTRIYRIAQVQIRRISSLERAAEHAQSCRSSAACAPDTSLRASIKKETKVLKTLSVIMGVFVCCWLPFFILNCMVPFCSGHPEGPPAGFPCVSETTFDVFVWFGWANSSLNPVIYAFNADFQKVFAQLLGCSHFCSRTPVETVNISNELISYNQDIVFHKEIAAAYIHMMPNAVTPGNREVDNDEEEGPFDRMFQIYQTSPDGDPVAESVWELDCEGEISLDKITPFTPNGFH
measurement.notes: Displacement of [3H]SCH23390 from human dopamine D5 receptor transfected in HEK293 cells after 2 hrs by scintillation counting analysis
Format: cell-based
condition.notes: read-out: pKi (converted)
measure: Ki (µM)

Oc1ccc2c(c1)O[C@@H](CNCc1ccc(I)cc1)CC2 | 3.55

A. Oc1ccc2c(c1)O[C@@H](CNCc1ccccc1)CC2
B. Oc1ccc2c(c1)O[C@@H](CN1CCN(c3ccc(I)cc3)CC1)CC2
Request: I need your help: which of the pair A , B has higher Ki? Respond with the label that goes with your answer.
Result: B
(B: 17.4 µM, A: 3.72 µM)
